- assay_target: T1, autolytically stable caspase-1 variant (D381 E) (UniProt P29466 120-404, limits assumed)
- T1 sequence (looked up): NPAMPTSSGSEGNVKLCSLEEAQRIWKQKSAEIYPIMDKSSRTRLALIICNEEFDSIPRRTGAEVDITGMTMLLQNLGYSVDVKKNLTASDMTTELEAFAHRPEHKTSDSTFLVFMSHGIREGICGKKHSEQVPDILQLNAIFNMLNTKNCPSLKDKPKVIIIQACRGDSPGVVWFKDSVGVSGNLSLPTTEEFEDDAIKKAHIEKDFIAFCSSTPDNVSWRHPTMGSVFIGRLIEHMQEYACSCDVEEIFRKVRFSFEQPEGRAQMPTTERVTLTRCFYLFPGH
- procedure_summary: cell-based or functional assay
Numbered stars: 1 amine (or outer) side, 2 acyl side, 3 side chain; on linkers, the order of the positions; unused ones are H or OH. Square brackets hold non-standard residues; d marks the D form. Ends that are not written are not given here. * marks the point of attachment. AAsp = aza-Asp, O=C(N(CC(=O)[*:3])N[*:1])[*:2]; azaAsp = O=C(N(CC(=O)[*:3])N[*:1])[*:2]; PhPr = N-terminal cap as named (PhPr); Hydrocinnamoyl = O=C(CCc1ccccc1)*; Cbz = O=C(OCc1ccccc1)*
k2 strictly under 6000 M⁻¹ s⁻¹ means Y; at 6000 M⁻¹ s⁻¹ or over means N.

- PhPr-Val-Ala-[AAsp]-{(S,S)‑EP‑CONHCH2CH2Ph} [PhPr-Val-Ala-AAsp-(S,S)-EP-CONHCH2CH2Ph]: N

For Cbz-IET[azaAsp]-{(R,R)‑EP‑CONHCH2Ph} [Cbz-Ile-Glu-Thr-AAsp-(R, R)-EP-CONHCH2Ph] , is the recorded k2 below the cut-off of 6000 M⁻¹ s⁻¹?
N

For Cbz-DEVD (not fully specified (residue 4, C-terminus); printed as Cbz-Asp-Glu-Val-AAsp-(2S, 3S)-EP-COOEt) [Cbz-Asp-Glu-Val-AAsp-(2S, 3S)-EP-COOEt] , is the recorded k2 below the cut-off of 6000 M⁻¹ s⁻¹?
N

For Hydrocinnamoyl-Val-Ala-[AAsp]-{(R,R)‑EP‑COOEt} [PhPr-Val-Ala-AAsp-(R,R)-EP-COOEt] , is the recorded k2 below the cut-off of 6000 M⁻¹ s⁻¹?
N

For Cbz-Glu-Val-[azaAsp]-{(R,R)‑EP‑CO-Phe-NH2} [Cbz-Glu-Val-AAsp-(R,R)-EP-CO-Phe-NH2] , is the recorded k2 below the cut-off of 6000 M⁻¹ s⁻¹?
Y

For PhPr-Val-Ala-[AAsp]-{(S,S)‑EP‑CO-Leu-NH2} [PhPr-Val-Ala-AAsp-(S,S)-EP-CO-Leu-NH2] , is the recorded k2 below the cut-off of 6000 M⁻¹ s⁻¹?
N
